The values you see were collected from patent US20210388084A1.

Biological target: T1, membrane-bound full-length human CD89 (human, UniProt P24071 22-287)
T1 construct: on stably or transiently transfected HEK293F cells; also called FcalphaRI; huCD89
Assay: FACS, HEK293F-huCD89, 24 h 37C no NaN3, IgA then Ab 10 ug/mL; pre-bound heat-aggr serum IgA
measuredProperty: percent IgA binding (remaining)

Ask: // lookup percent IgA binding (remaining) for mouse anti-human CD89-specific antibody 30C7 (antibody, mouse IgG1, V domains shown) VH: QVQLQQSGPELVRPGVSVKISCKGSGYTFTDYVMHWVKQSHAKSLEWIGVISTYSGNTNYNQKFKGKATMTVDKSSSTAYMELARLTSEDSAIYYCARESDGYYFDYWGQGTTLTVSS VL: DIVMSQSPSSLAVSAGEKVTMSCKSSQSLLNSRTRKNYLAWYQQKPGQSPKLLIYWASTRESGVPDRFTGSGSGTDFTLTISSVQAEDLAVYYCKQSYNLMYTFGGGTKLEIK
Result: 0 to 25%

Ask: // lookup percent IgA binding (remaining) for mouse anti-human CD89-specific antibody 20B4 (antibody, mouse IgG1, V domains shown) VH: QVQLKESGPGLVAPSQSLSITCTVSGFSLTSYGVHWVRQPPGKGLEWLGIIWAGGSTSYNSALMSRLSISKDNSKSQVFLKMNSLQTDDTAMYYCARDHYDLFAYWGQGTLVTVSA VL: DILMTQSPSSMSVSLGDTVSITCHASQDISRNIGWLQQKPGKSFKGLIYHGTNLEDGVPSRFSGSGSGADYSLTISSLESEDFADYYCVQYAQFPRTFGGGTKLEIK
Result: 26 to 50%

// next item, percent IgA binding (remaining) requested
Ask: // lookup percent IgA binding (remaining) for mouse anti-human CD89-specific antibody 8F3 (antibody, mouse IgG1, V domains shown) VH: EVQLVESGGGLVKPGGSLKLSCAASGFTFSNYGMSWVRQTPDKRLEWVATMHSGGTYTYYPDNVKGRFTISRDNAKNNLYLQMSSLRSEDTAMYYCARETGLYDGLFDFWGQGTTLTVSS VL: DVQITQSPSYLAASPGETITINCRASKTISKYLAWYQEKPGKTNMLLIYSGSTLQSGVPSRFSGSGSGTDFTLTISSLEPEDLAMYYCQQHDEYPWTFGGGTKLEIK
Result: 0 to 25%
